Sequence of the target: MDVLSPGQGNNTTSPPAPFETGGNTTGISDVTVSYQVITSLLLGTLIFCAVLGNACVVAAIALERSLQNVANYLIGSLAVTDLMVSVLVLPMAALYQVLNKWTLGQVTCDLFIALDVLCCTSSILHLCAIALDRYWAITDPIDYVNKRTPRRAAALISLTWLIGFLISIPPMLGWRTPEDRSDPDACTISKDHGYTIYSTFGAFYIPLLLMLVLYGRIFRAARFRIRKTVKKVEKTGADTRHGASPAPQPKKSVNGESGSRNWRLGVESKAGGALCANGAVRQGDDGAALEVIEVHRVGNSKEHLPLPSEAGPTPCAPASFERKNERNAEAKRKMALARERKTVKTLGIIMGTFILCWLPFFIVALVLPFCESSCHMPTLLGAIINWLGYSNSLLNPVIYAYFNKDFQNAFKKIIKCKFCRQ
Recorded Ki for compounds tested on the protein given by its sequence, drawn from a number of studies.
Enter your answer as a number in nM; do not include the unit.

Solved cases below.
O=S1(=O)c2cccc3cccc(c23)N1CCCCCCN1CCN(c2cccc(C(F)(F)F)c2)CC1 132
Fc1cccc(OCc2ccccc2)c1C1CCNCC1 364
O=C1CC2(CCCC2)CC(=O)N1CCN1CCN(c2cccc(Cl)c2)CC1 1.09

Query: Consider the compound "COc1ccccc1N1CCN(CCCNS(=O)(=O)c2cccc3c(N(C)C)cccc23)CC1" and give its measured Ki.
Reply: 29

----------
pKi: −log10 of the molar value.
Recorded pKi for compounds tested on 5-hydroxytryptamine receptor 1A (Homo sapiens, UniProt P08908), drawn from a number of studies.
Could you label it YES if measured pKi is 6 or higher, and NO otherwise?

Some entries whose results are on file:
compound	class
O[C@H](CCN1CCc2onc(-c3ccc(F)c(F)c3)c2C1)c1ccccc1	NO
Cc1ccc2c(OCCN3CCC(Cc4ccc5c(c4F)NC(=O)CO5)CC3)cccc2n1	YES
O=C1c2ccccc2S(=O)(=O)N1CCCN1CCN(c2cccc(C(F)(F)F)c2)CC1	YES

Query: Does pKi meet or surpass 6 for COc1ccc(C(O)CCN2CCN(c3ccccc3OC)CC2)cc1 (stereo unspecified) ?
Reply: YES

Query: Does pKi meet or surpass 6 for "CN(C)CCSc1cccc(Br)n1" ?
Reply: YES

----------
Recorded Ki for molecules tested on 5-hydroxytryptamine receptor 1A (Homo sapiens), drawn from a number of studies.
Enter your answer as a number in nM; do not include the unit.

Solved cases below.
molecule	Ki, nM
O=C(NC1CCc2ccc(CCN3CCN(c4nsc5ccccc45)CC3)cc21)c1ccco1 (stereo not given)	7.9
O[C@@H]1[C@@H](CNCCOc2ccccc2)CCC1(c1ccccc1)c1ccccc1 (relative stereo)	9.55

Query: Consider the molecule "COc1ccccc1N1CCN(CCCc2cn(-c3ccc(-c4ccsc4)cc3)nn2)CC1" and give its measured Ki.
Reply: 7.4

Query: Consider the molecule "CN(C)CC1=Cc2cn(S(=O)(=O)c3cccc4ccccc34)c3cccc(c23)O1" and give its measured Ki.
Reply: 5970

Query: Consider the molecule "Fc1ccc(SCCCN2CCN(c3ncccn3)CC2)cc1" and give its measured Ki.
Reply: 93.1

----------
Recorded log10 Ki for compounds tested on 5-hydroxytryptamine receptor 1A (Homo sapiens), drawn from a number of studies.
Kindly note that the scale is log10 and the underlying Ki is in µM.

compound	log10 Ki
CC(C)c1ccccc1OCC(O)CN1CCC(NS(=O)(=O)c2ccc(F)cc2)CC1 (stereo not given)	-0.30
NC(=O)[C@@H]1CCCN1C(=O)CCCCCN1CCN(c2ccccc2F)CC1	-0.85
O=C1Nc2ccccc2C12CCN(CCN1CCC(Oc3ccc(Cl)cc3)CC1)C2 (stereo not given)	1.14
COc1ccc(-c2ccc(CNCCc3c[nH]c4ccc(OC)cc34)o2)cc1	-0.48

Please find the next compound below.
Query: Please provide the recorded log10 Ki for CCN(CCCCc1c[nH]c2ccc(F)cc12)C1COc2c(F)ccc(C(N)=O)c2C1 (racemic) , tested on 5-hydroxytryptamine receptor 1A (Homo sapiens).
Reply: -0.48

----------
Recorded Ki for molecules tested on 5-hydroxytryptamine receptor 1A (Homo sapiens, UniProt P08908), drawn from a number of studies.
Enter your answer as a number in nM; do not include the unit.

Solved cases below.
molecule	Ki, nM
N#Cc1ccc2[nH]cc([C@H]3CC[C@@H](N4CCN(c5cccc6nccnc56)CC4)CC3)c2c1	156
COc1cc(C)ccc1Sc1ccccc1N1CCNCC1	210
CNc1ccccc1C(=O)N1CCc2c([nH]c3ccccc23)C1=O	32000
Fc1ccc(Oc2ncccc2C2CCNCC2)c(F)c1	29
COc1ccccc1N1CCN(CCCCCN2C(=O)c3ccccc3C2=O)CC1	7.2

Query: Please provide the recorded Ki for "CC(=O)c1c(-c2ccccc2)nn(C)c(=O)c1NCCN1CCN(c2ccccc2Cl)CC1" , tested on 5-hydroxytryptamine receptor 1A (Homo sapiens, UniProt P08908).
Reply: 11.6

Query: Please provide the recorded Ki for "CC(=O)c1c(OCCCN2CCN(c3ccccc3Cl)CC2)ccc2c(C)cc(=O)oc12" , tested on 5-hydroxytryptamine receptor 1A (Homo sapiens, UniProt P08908).
Reply: 2

----------
Recorded pKi for compounds tested on 5-hydroxytryptamine receptor 1A (Homo sapiens, UniProt P08908), drawn from a number of studies.
Bear in mind: pKi is minus log10 of a mol/L concentration; give just that figure.

Solved cases below.
compound	pKi
O=C(NC1CCc2ccc(CCN3CCN(c4nsc5ccccc45)CC3)cc21)C1CC1 (stereo not given)	7.92
COc1cc(F)ccc1N1CCN(CCC(=O)c2csc3ccccc23)CC1	6.30
O=C([C@@H]1CCCN1C(=O)CCCCCCN1CCN(c2ccccc2-c2ccccc2)CC1)N1CCCCC1	8.05
CC(Oc1cc(C(F)(F)F)ccc1F)c1nc(N)nc(N2CCN(C)CC2)n1 (stereo not given)	5.22
Cc1ccc2c3c(ccc2n1)OC[C@H](CN1CCCN(c2ccc4ccccc4n2)CC1)O3	8.17
Cc1ccc2c(OCCN3CCC(Cc4ccc5c(c4)NC(=O)CO5)CC3)cc(F)cc2n1	9.10
Fc1ccccc1Oc1ccccc1OC1CCNCC1	6.16
Fc1ccc2c(C3CCN(CCCOc4ccc(CN5CCOCC5)c(F)c4)CC3)noc2c1	7.04
O=C(c1ccc(Cl)cc1)N1CCN(CCN2CCC3(C2)C(=O)Nc2ccccc23)CC1 (stereo not given)	4.32

Query: Please provide the recorded pKi for "COc1ccc(NC(=O)N2CCN(c3ccccc3C)CC2)cc1N1CCN(C)CC1" , tested on 5-hydroxytryptamine receptor 1A (Homo sapiens, UniProt P08908).
Reply: 6.41

----------
Recorded pKi for compounds tested on 5-hydroxytryptamine receptor 1A (Homo sapiens), drawn from a number of studies.
Bear in mind: pKi is minus log10 of a mol/L concentration; give just that figure.

compound	value_measured
COc1cccc(CCc2ccccc2OCCCCN2CCc3ccccc3C2)c1	5.88
Cc1cccc(N2CCN(CCCCNC(=O)c3cc4ccccc4cn3)CC2)n1	8.70
Cc1cccc(N2CCN(CCCCNC(=O)c3cc4ccccc4o3)CC2)c1C	8.40
NC(=O)[C@@H]1Cc2ccccc2CN1C(=O)CCCCN1CCN(c2ccc(Cl)cc2)CC1	6.68

Please find the next compound below.
Query: Please provide the recorded pKi for O=S(=O)(NC1CCN(CCOc2cc(Cl)ccc2Cl)C1)c1ccc(Cl)s1 (stereo not given) , tested on 5-hydroxytryptamine receptor 1A (Homo sapiens).
Reply: 6.14

----------
Recorded pKi for compounds tested on 5-hydroxytryptamine receptor 1A (Homo sapiens), drawn from a number of studies.
# system_name: 5-hydroxytryptamine receptor 1A (Homo sapiens)
# Sequence (P08908 whole entry): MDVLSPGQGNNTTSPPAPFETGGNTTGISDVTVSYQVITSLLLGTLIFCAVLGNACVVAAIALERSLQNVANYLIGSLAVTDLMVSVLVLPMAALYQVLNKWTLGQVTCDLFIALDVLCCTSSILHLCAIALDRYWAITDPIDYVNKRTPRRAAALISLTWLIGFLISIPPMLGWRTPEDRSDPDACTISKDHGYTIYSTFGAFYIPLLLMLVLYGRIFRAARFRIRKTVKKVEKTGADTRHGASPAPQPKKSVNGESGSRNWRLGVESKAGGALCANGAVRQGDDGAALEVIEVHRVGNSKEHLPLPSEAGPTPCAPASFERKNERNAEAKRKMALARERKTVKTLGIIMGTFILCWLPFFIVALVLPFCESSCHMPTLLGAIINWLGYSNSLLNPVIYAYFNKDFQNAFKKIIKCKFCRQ
Bear in mind: pKi is minus log10 of a mol/L concentration; give just that figure.

Query: Consider the compound "COc1ccccc1N1CCN(CCCCCC(=O)N2Cc3ccccc3C[C@H]2C(N)=O)CC1" and give its measured pKi.
Reply: 7.92

Query: Consider the compound "O=C(NCCc1c[nH]c2ccccc12)C1CCN(C(=O)c2ccc(-c3ccccc3)cc2)CC1" and give its measured pKi.
Reply: 6.22

Query: Consider the compound "NC(=O)[C@@H]1Cc2ccccc2CN1C(=O)CCCCCN1CCN(c2ccccc2-c2ccccc2)CC1" and give its measured pKi.
Reply: 7.59

Query: Consider the compound "O=C1CC2(CCCC2)CC(=O)N1CCN1CCN(c2ccc(F)cc2)CC1" and give its measured pKi.
Reply: 6.82
